Data credit: patent US20230399319A1

Give IC50 for every item shown.
target: UniProt Q96P20; test: Evaluation of NLRP3 inflammasome inhibitory activity (inhibition of IL-1β production in THP1-Null cells, LPS/Nigericin)
Sequence (Q96P20 whole entry): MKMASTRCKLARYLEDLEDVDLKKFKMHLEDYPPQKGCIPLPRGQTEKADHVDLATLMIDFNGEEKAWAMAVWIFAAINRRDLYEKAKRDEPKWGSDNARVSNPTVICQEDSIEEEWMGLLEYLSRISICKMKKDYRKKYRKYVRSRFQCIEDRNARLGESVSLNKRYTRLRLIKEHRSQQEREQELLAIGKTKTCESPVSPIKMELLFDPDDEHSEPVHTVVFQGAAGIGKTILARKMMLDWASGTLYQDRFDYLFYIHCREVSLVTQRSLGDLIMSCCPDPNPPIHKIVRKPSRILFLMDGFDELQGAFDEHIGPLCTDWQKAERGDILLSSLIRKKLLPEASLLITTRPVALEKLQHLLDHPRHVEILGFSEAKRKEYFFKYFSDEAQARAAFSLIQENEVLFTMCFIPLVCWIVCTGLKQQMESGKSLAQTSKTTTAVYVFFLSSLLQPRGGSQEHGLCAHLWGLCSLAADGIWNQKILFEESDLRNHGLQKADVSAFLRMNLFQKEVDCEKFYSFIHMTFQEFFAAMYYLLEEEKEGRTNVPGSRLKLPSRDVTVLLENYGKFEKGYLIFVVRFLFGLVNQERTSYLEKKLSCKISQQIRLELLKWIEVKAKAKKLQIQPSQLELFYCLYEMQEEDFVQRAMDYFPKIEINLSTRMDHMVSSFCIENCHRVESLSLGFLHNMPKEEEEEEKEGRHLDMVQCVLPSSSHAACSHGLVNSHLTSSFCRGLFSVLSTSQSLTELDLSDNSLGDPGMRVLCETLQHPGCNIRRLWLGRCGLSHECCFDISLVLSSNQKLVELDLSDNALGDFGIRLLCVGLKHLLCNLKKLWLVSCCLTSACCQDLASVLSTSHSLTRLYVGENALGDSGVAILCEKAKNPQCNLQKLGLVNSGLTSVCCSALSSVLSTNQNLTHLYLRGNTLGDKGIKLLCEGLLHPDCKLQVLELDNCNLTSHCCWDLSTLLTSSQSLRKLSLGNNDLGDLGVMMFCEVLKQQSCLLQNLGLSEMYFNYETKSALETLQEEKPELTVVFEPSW
One number for each entry, in µM.

Consider the worked cases shown below.
> print(dat)
                                   compound  measured.target  measurement
1  CCCS(=O)(=O)N1CCN(S(=O)(=O)NC(=O)c2coc(Nc3cc(C(F)(F)F)ccc3C)n2)CC(F)C1 (racemic)   UniProt Q96P20         0.03
2  COC1COCCN(S(=O)(=O)NC(=O)c2coc(Nc3cc(C(F)F)ccc3C)n2)C1 (racemic)   UniProt Q96P20        0.059
3  Cc1ccc(C(F)(F)F)cc1Nc1nc(C(=O)NS(=O)(=O)N2CCOCCC2C)co1 (racemic)   UniProt Q96P20        0.054
4  Cc1ccc(C(F)(F)F)cc1Nc1nc(C(=O)NS(=O)(=O)N2CCCN(S(=O)(=O)C3CCOC3)CC2)co1 (racemic)   UniProt Q96P20        0.067

Hey, quick one: what's IC50 for each of these?
1. Cc1ccc2c(c1Nc1nc(C(=O)NS(=O)(=O)N3CCC(O)C3)co1)CCC2 (racemic)
2. Cc1ccc(C(F)(F)F)cc1Nc1nc(C(=O)NS(=O)(=O)N2CCCN(C(=O)C3CCOC3)CC2)co1 (racemic)
3. Cc1ccc(C(F)(F)F)cc1Nc1nc(C(=O)NS(=O)(=O)N2CCCC(C(=O)N(C)C)CC2)co1 (racemic)

Result:
0.19
0.18
0.038
